Molecular target: cloned human δ-opioid receptor (Homo sapiens, UniProt P41143)
Construct: expressed in transfected cells
Sequence (P41143 whole entry): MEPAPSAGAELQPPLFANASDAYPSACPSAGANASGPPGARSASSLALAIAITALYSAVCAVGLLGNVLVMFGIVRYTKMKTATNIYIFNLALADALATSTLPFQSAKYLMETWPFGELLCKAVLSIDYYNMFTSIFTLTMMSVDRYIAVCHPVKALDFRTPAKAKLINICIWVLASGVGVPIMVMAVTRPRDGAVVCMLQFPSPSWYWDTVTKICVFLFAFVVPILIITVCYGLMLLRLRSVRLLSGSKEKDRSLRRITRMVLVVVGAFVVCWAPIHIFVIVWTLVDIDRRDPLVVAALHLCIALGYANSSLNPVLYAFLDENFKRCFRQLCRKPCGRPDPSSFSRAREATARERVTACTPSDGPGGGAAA
Test: Inhibition of DPDPE-stimulated [35S]GTPγS binding
Format: biochemical
Settings: antagonism of DPDPE-stimulated [35S]GTPγS binding, cloned human δ receptor; read-out: δ, DPDPE Ke
readout.label: Kb (nM)
Answers are plain numbers, in nM.

Please report Kb for the following compound: Cc1ccc(O)c(Oc2ccc(C(=O)N[C@H](CN3CCN(c4cccc(O)c4)[C@@H](C)C3)C(C)C)cc2Cl)c1.Cl.Cl [Compound 19p, Dihydrochloride]
15

Please look at the items below and tell me Kb for each one, in order.
1. Cc1cccc(Oc2ccc(C(=O)N[C@H](CN3CCN(c4cccc(O)c4)[C@@H](C)C3)C(C)C)cc2O)c1.Cl.Cl [Compound 19i, Dihydrochloride]
2. CC(C)[C@@H](CN1CCN(c2cccc(O)c2)[C@@H](C)C1)NC(=O)c1ccc(Oc2cccc(Br)c2)cc1.Cl.Cl [Compound 19d, Dihydrochloride]

1. 81
2. 42

====

Target: cloned human κ-opioid receptor (Homo sapiens, UniProt P41145)
Construct: expressed in transfected cells
Sequence (P41145 whole entry): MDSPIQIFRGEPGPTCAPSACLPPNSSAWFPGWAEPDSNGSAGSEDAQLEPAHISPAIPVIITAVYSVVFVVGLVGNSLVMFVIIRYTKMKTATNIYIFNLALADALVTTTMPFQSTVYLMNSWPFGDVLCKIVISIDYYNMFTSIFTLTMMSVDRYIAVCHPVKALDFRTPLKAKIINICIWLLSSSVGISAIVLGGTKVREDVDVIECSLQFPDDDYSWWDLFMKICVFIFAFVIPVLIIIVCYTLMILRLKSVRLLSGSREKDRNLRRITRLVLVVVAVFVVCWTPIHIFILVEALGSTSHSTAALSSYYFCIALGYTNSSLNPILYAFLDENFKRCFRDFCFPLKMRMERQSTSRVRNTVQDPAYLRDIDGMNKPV
Assay: Inhibition of U69,593-stimulated [35S]GTPγS binding
Type: biochemical
Conditions: ratio of Ke values, selectivity for κ relative to μ
# true = μ/κ below 30 (exclusive); false = μ/κ at/above 30

I'd appreciate it if you could check whether CC(C)[C@@H](CN1CCN(c2cccc(O)c2)[C@@H](C)C1)NC(=O)c1ccc(Oc2ccccc2O)c(Cl)c1.Cl.Cl [Compound 19n] has μ/κ smaller than 30.
true

Please determine if Cc1cccc(Oc2ccc(C(=O)N[C@H](CN3CCN(c4cccc(O)c4)[C@@H](C)C3)C(C)C)c(C)c2)c1.Cl.Cl [Compound 19j] is below 30 in terms of μ/κ.
true

μ/κ under 30? Item: COc1ccccc1Oc1ccc(C(=O)N[C@H](CN2CCN(c3cccc(O)c3)[C@@H](C)C2)C(C)C)cc1.Cl.Cl
true

Lab note: confirm whether the reported μ/κ for this compound is below 30, equality not counting. compound: COc1cccc(Oc2ccc(C(=O)N[C@H](CN3CCN(c4cccc(O)c4)[C@@H](C)C3)C(C)C)cc2)c1.Cl.Cl
false

Shifting focus to the compound that follows.
Please check: μ/κ for COc1ccc(Oc2ccc(C(=O)N[C@H](CN3CCN(c4cccc(O)c4)[C@@H](C)C3)C(C)C)cc2)cc1.Cl.Cl , strictly under 30 or not?
true

====

Target: cloned human κ-opioid receptor (Homo sapiens, UniProt P41145)
Construct: expressed in transfected cells
Experiment: Inhibition of U69,593-stimulated [35S]GTPγS binding
Assay type: biochemical
Conditions: antagonism of U69,593-stimulated [35S]GTPγS binding, cloned human κ receptor; read-out: κ, U69,593 Ke
For each record, write down the corresponding Kb.
State the value, then name its unit.

The examples below pair each entry with its known result.
Please report the measured Kb for CC(C)[C@@H](CN1CCN(c2cccc(O)c2)[C@@H](C)C1)NC(=O)c1ccc(Oc2cccc(Br)c2)cc1.Cl.Cl [Compound 19d, Dihydrochloride]
0.48 nM

Check the records and state Kb for CC(C)[C@@H](CN1CCN(c2cccc(O)c2)[C@@H](C)C1)NC(=O)c1ccc(Oc2ccccc2F)cc1.Cl.Cl [Compound 19a, Dihydrochloride]
0.76 nM

Output Kb of Cc1cccc(Oc2ccc(C(=O)N[C@H](CN3CCN(c4cccc(O)c4)[C@@H](C)C3)C(C)C)cc2)c1O.Cl.Cl [Compound 19e, Dihydrochloride]
0.34 nM

Next compound, Kb to be filled in.
Tell us which Kb value is on record for Cc1cccc(Oc2ccc(C(=O)N[C@H](CN3CCN(c4cccc(O)c4)[C@@H](C)C3)C(C)C)c(C)c2)c1.Cl.Cl [Compound 19j, Dihydrochloride]
0.65 nM

====

Target: cloned human κ-opioid receptor (Homo sapiens, UniProt P41145)
Construct: expressed in transfected cells
Test: Inhibition of U69,593-stimulated [35S]GTPγS binding
Format: biochemical
Conditions: ratio of Ke values, selectivity for κ relative to δ
Assign δ/κ to each entry below.

Quickly give me recorded δ/κ for CC(C)[C@@H](CN1CCN(c2cccc(O)c2)[C@@H](C)C1)NC(=O)c1ccc(Oc2ccccc2O)c(Cl)c1.Cl.Cl [Compound 19n]
42

Report δ/κ, nothing else, for this compound: COc1cc(C(=O)N[C@H](CN2CCN(c3cccc(O)c3)[C@@H](C)C2)C(C)C)ccc1Oc1cc(C)ccc1O.Cl.Cl [Compound 19o]
6

For the 5 compounds below, give their δ/κ values.
1. COc1cc(Oc2cccc(C)c2)ccc1C(=O)N[C@H](CN1CCN(c2cccc(O)c2)[C@@H](C)C1)C(C)C.Cl.Cl [Compound 19k]
2. Cc1cccc(Oc2ccc(C(=O)N[C@H](CN3CCN(c4cccc(O)c4)[C@@H](C)C3)C(C)C)cc2O)c1.Cl.Cl [Compound 19i]
3. CC(C)[C@@H](CN1CCN(c2cccc(O)c2)[C@@H](C)C1)NC(=O)c1ccc(Oc2cccc(Br)c2)cc1.Cl.Cl [Compound 19d]
4. COc1cccc(Oc2ccc(C(=O)N[C@H](CN3CCN(c4cccc(O)c4)[C@@H](C)C3)C(C)C)cc2)c1.Cl.Cl
5. COc1cc(C(=O)N[C@H](CN2CCN(c3cccc(O)c3)[C@@H](C)C2)C(C)C)ccc1Oc1ccccc1O.Cl.Cl [Compound 19m]

48
142
88
2384
4

Identify measured δ/κ associated with COc1ccccc1Oc1ccc(C(=O)N[C@H](CN2CCN(c3cccc(O)c3)[C@@H](C)C2)C(C)C)cc1.Cl.Cl
155

Attribution: patent US9512105B2
